Data provenance is patent EP4725957A1.

Assay: Nephrotoxicity assay: in vitro cytotoxicity of HK-2 cells by CCK-8 assay
Format: cell-based
Conditions: human, HK-2 cells (human renal), 72 h incubation with drug-containing medium
Bridge positions count the residues as written; N and C are the ends. Square brackets hold non-standard residues; d marks the D form. Peptide text beside a SMILES is read from it. * marks the point of attachment. Nonanoyl = CCCCCCCCC(=O)*; dDab = NCC[C@@H](N)C(=O)O; Heptanoyl = CCCCCCC(=O)*; Dab = NCC[C@H](N)C(=O)O; Dap = NC[C@H](N)C(=O)O
Catalogue of compounds with associated IC50 at 72 h
Give the value, in units of µg/mL, as a plain number.

COMPOUND	IC50 at 72 h / µg/mL
CCCCCCC(=O)N[C@@H](CN)C(=O)N[C@H](C(=O)N[C@H](CCN)C(=O)N[C@H]1CCNC(=O)[C@H]([C@@H](C)O)NC(=O)[C@H](CCN)NC(=O)[C@H](CCN)NC(=O)[C@H](CC(C)C)NC(=O)[C@@H](CC(C)C)NC(=O)[C@H](CCN)NC1=O)[C@@H](C)O [Compound 99] (Heptanoyl-[Dap]T[dDab][Dab][Dab][dL]L[Dab][Dab]T; lactam 4-C)	317

Turning now to a further compound:
Read the entry CCCCCCCCC(=O)N[C@@H](CCN)C(=O)N[C@H](C(=O)N[C@@H](CN)C(=O)N[C@H]1CCNC(=O)[C@H]([C@@H](C)O)NC(=O)[C@H](CCN)NC(=O)[C@H](CCN)NC(=O)[C@H]([C@@H](C)O)NC(=O)[C@@H](Cc2ccccc2)NC(=O)[C@H](CCN)NC1=O)[C@@H](C)O [Compound 10] (Nonanoyl-[Dab]T[Dap][Dab][Dab][dF]T[Dab][Dab]T; lactam 4-C) and write its reported IC50 at 72 h.
350

###

List of IC50 at 72 h values.
Test: Nephrotoxicity assay: in vitro cytotoxicity of HK-2 cells by CCK-8 assay
Assay type: cell-based
Conditions: human, HK-2 cells (human renal), 72 h incubation with drug-containing medium
Bridge positions count the residues as written; N and C are the ends. Square brackets hold non-standard residues; d marks the D form. Peptide text beside a SMILES is read from it. * marks the point of attachment. Dab(CH2SO3H) = N[C@@H](CCNCS(=O)(=O)O)C(=O)O; Heptanoyl(6-Me) = CC(C)CCCCC(=O)*; Nonanoyl = CCCCCCCCC(=O)*; Orn = NCCC[C@H](N)C(=O)O; Dab = NCC[C@H](N)C(=O)O; Dap = NC[C@H](N)C(=O)O

COMPOUND	IC50 at 72 h
CCCCCCCCC(=O)N[C@@H](CCN)C(=O)N[C@H](C(=O)N[C@@H](CCCN)C(=O)N[C@H]1CCNC(=O)[C@H]([C@@H](C)O)NC(=O)[C@H](CCN)NC(=O)[C@H](CCN)NC(=O)[C@H]([C@@H](C)O)NC(=O)[C@@H](Cc2ccccc2)NC(=O)[C@H](CCN)NC1=O)[C@@H](C)O [Compound 30] (Nonanoyl-[Dab]T[Orn][Dab][Dab][dF]T[Dab][Dab]T; lactam 4-C)	270 µg/mL

// below: IC50 at 72 h requested for another compound
For the compound CC(C)CCCCC(=O)N[C@@H](CCN)C(=O)N[C@H](C(=O)N[C@@H](CN)C(=O)N[C@H]1CCNC(=O)[C@H]([C@@H](C)O)NC(=O)[C@H](CCN)NC(=O)[C@H](CCNCS(=O)(=O)O)NC(=O)[C@H]([C@@H](C)O)NC(=O)[C@@H](Cc2ccccc2)NC(=O)[C@H](CCN)NC1=O)[C@@H](C)O [Compound 119] ({Heptanoyl(6-Me)}-[Dab]T[Dap][Dab][Dab][dF]T[Dab(CH2SO3H)][Dab]T; lactam 4-C) , report IC50 at 72 h.
> 500 µg/mL

###

Experiment: Nephrotoxicity assay: in vitro cytotoxicity of HK-2 cells by CCK-8 assay
Format: cell-based
Conditions: human, HK-2 cells (human renal), 72 h incubation with drug-containing medium
Bridge positions count the residues as written; N and C are the ends. Square brackets hold non-standard residues; d marks the D form. Peptide text beside a SMILES is read from it. * marks the point of attachment. dOrn = NCCC[C@@H](N)C(=O)O; Nonanoyl = CCCCCCCCC(=O)*; dDab = NCC[C@@H](N)C(=O)O; Heptanoyl = CCCCCCC(=O)*; Octanoyl = CCCCCCCC(=O)*; Orn = NCCC[C@H](N)C(=O)O; Dab = NCC[C@H](N)C(=O)O; Dap = NC[C@H](N)C(=O)O
ASSAY METRIC: IC50 at 72 h (µg/mL)
Field: numeric (µg/mL). Do not append units.

Previously resolved entries follow.
COMPOUND	IC50 at 72 h / µg/mL
CCCCCCCCC(=O)N[C@@H](CCN)C(=O)N[C@H](C(=O)N[C@H](CO)C(=O)N[C@H]1CCNC(=O)[C@H]([C@@H](C)O)NC(=O)[C@H](CCN)NC(=O)[C@H](CCCN)NC(=O)[C@H]([C@@H](C)O)NC(=O)[C@@H](Cc2ccccc2)NC(=O)[C@H](CCN)NC1=O)[C@@H](C)O [Compound 80] (Nonanoyl-[Dab]T[dS][Dab][Dab][dF]T[Orn][Dab]T; lactam 4-C)	288
CCCCCCCC(=O)N[C@@H](CCN)C(=O)N[C@H](C(=O)N[C@H](CCCN)C(=O)N[C@H]1CCNC(=O)[C@H]([C@@H](C)O)NC(=O)[C@H](CCN)NC(=O)[C@H](CCN)NC(=O)[C@H](CC(C)C)NC(=O)[C@@H](Cc2ccccc2)NC(=O)[C@H](CCN)NC1=O)[C@@H](C)O [Compound 43] (Octanoyl-[Dab]T[dOrn][Dab][Dab][dF]L[Dab][Dab]T; lactam 4-C)	328
CCCCCCCCC(=O)N[C@@H](CCN)C(=O)N[C@H](C(=O)N[C@H](CO)C(=O)N[C@H]1CCNC(=O)[C@H]([C@@H](C)O)NC(=O)[C@H](CCCN)NC(=O)[C@H](CCN)NC(=O)[C@H]([C@@H](C)O)NC(=O)[C@@H](Cc2ccccc2)NC(=O)[C@H](CCN)NC1=O)[C@@H](C)O [Compound 90] (Nonanoyl-[Dab]T[dS][Dab][Dab][dF]T[Dab][Orn]T; lactam 4-C)	320
CCCCCCCCC(=O)N[C@@H](CCN)C(=O)N[C@H](C(=O)N[C@H](CCCN)C(=O)N[C@H]1CCNC(=O)[C@H]([C@@H](C)O)NC(=O)[C@H](CCN)NC(=O)[C@H](CCN)NC(=O)[C@H]([C@@H](C)O)NC(=O)[C@@H](Cc2ccccc2)NC(=O)[C@H](CCN)NC1=O)[C@@H](C)O [Compound 25] (Nonanoyl-[Dab]T[dOrn][Dab][Dab][dF]T[Dab][Dab]T; lactam 4-C)	338

Give reported IC50 at 72 h value for CCCCCCC(=O)N[C@@H](CN)C(=O)N[C@H](C(=O)N[C@H](CCN)C(=O)N[C@H]1CCNC(=O)[C@H]([C@@H](C)O)NC(=O)[C@H](CCN)NC(=O)[C@H](CCN)NC(=O)[C@H](CC(C)C)NC(=O)[C@@H](Cc2ccccc2)NC(=O)[C@H](CCN)NC1=O)[C@@H](C)O [Compound 94] (Heptanoyl-[Dap]T[dDab][Dab][Dab][dF]L[Dab][Dab]T; lactam 4-C)
298

###

System: Acinetobacter baumannii NCTC 13304 (OXA-27)
Type: cell-based
Details: NCTC 13304
Bridge positions count the residues as written; N and C are the ends. Square brackets hold non-standard residues; d marks the D form. Peptide text beside a SMILES is read from it. * marks the point of attachment. Heptanoyl(6-Me) = CC(C)CCCCC(=O)*; Sulfomethyl = O=S(=O)(O)C*; dOrn = NCCC[C@@H](N)C(=O)O; Nonanoyl = CCCCCCCCC(=O)*; Octanoyl = CCCCCCCC(=O)*; Orn = NCCC[C@H](N)C(=O)O; Dab = NCC[C@H](N)C(=O)O
ASSAY METRIC: MIC (µg/mL)
Write the answer as a number in µg/mL, unit excluded.

Worked examples follow.
COMPOUND	MIC (µg/mL)
CCCCCCCCC(=O)N[C@@H](CCN)C(=O)N[C@H](C(=O)N[C@H](CO)C(=O)N[C@H]1CCNC(=O)[C@H]([C@@H](C)O)NC(=O)[C@H](CCN)NC(=O)[C@H](CCCN)NC(=O)[C@H]([C@@H](C)O)NC(=O)[C@@H](Cc2ccccc2)NC(=O)[C@H](CCN)NC1=O)[C@@H](C)O [Compound 80] (Nonanoyl-[Dab]T[dS][Dab][Dab][dF]T[Orn][Dab]T; lactam 4-C)	0.03
CCCCCCCC(=O)N[C@@H](CCN)C(=O)N[C@H](C(=O)N[C@H](CCCN)C(=O)N[C@H]1CCNC(=O)[C@H]([C@@H](C)O)NC(=O)[C@H](CCN)NC(=O)[C@H](CCN)NC(=O)[C@H](CC(C)C)NC(=O)[C@@H](Cc2ccccc2)NC(=O)[C@H](CCN)NC1=O)[C@@H](C)O [Compound 43] (Octanoyl-[Dab]T[dOrn][Dab][Dab][dF]L[Dab][Dab]T; lactam 4-C)	0.06

Report value: MIC, system: Acinetobacter baumannii NCTC 13304 (OXA-27), compound: CC(C)CCCCC(=O)N[C@@H](CCN)C(=O)N[C@H](C(=O)N[C@H](CO)C(=O)N[C@H]1CCNC(=O)[C@H]([C@@H](C)O)NC(=O)[C@H](CCN)NC(=O)[C@H](CCN)NC(=O)[C@H]([C@@H](C)O)NC(=O)[C@@H](Cc2ccccc2)NC(=O)[C@H](CCN)NC1=O)[C@@H](C)OCS(=O)(=O)O [Compound 104] ({Heptanoyl(6-Me)}-[Dab]T(Sulfomethyl)[dS][Dab][Dab][dF]T[Dab][Dab]T; lactam 4-C)
0.06
